Parameter inhibition: see the listing below.
- testedOn: FAD-linked sulfhydryl oxidase ALR (Homo sapiens)
- assayExplanation: ALR-catalysed DTT oxidation blockers – biochemical, H2O2 detection, HRP-luminol luminescence, single point, primary screen (AID 485317)
- conditionContext: purified ALR, active compounds read high, concentration not given here
Among all 290,000 compounds or so, about 11,000 (3.8%) were called active. This excerpt belongs to a sample that is enriched for actives.
readoutKind: inhibition (%)

Cc1cccc2c(=O)n3c(nc12)CCCCC3
-3.58
CC(NC(=O)c1cccc(S(=O)(=O)N2CCc3ccccc3C2)c1)c1ccco1 (centres undefined)
-3.35
CCOC(=O)c1c(-c2ccccc2)oc2cc(Br)c(O)cc12
13.2
Cc1ccc(C(c2sc3nc(C)nn3c2O)N2CCN(c3ccc(F)cc3)CC2)cc1 (centres undefined)
2.24
COCCN(C(=O)COC(=O)Cc1cccc(OC)c1)c1c(N)n(Cc2ccccc2)c(=O)[nH]c1=O
3.3
CCC(CC)NC(=O)/C=C/c1cccc([N+](=O)[O-])c1
-3
Oc1ccc2nc(Cc3ccccc3)[nH]c2c1
98.6
Oc1ccc(-c2onc3ccc(Cl)cc23)cc1
81
CN1c2ccc(C=O)c3c(C=O)ccc(c23)N(C)C1(C)C
99.2
CCOC(=O)c1c(N)nn(C(=O)c2ccccc2)c1-c1ccccc1
3.16
O=C(OCC(=O)N1CCCCC1)c1ccc(OC(F)(F)F)cc1
-5.55
Cc1ccc(-c2cc(C(=O)NC3CCN(Cc4ccccc4)CC3)c3ccccc3n2)cc1
1.58
Cc1cc(=O)oc2c(C)c(OCC(=O)NCCN3CCOCC3)ccc12
-3.13
COc1cc(/C=N/Nc2ccc(C)cc2)cc(Br)c1O
98.4
Nc1cccc(CCc2nc3ccccc3[nH]2)c1
1.01
COCCn1c(C)cc(C(=O)CSc2nnc(C3CC3)n2C2CC2)c1C
13.1
CC(OC(=O)c1ccc2noc(-c3ccccc3)c2c1)C(N)=O (centres undefined)
2.68
Cc1ccc(CSCC(=O)N(C)CC(=O)Nc2cccc(F)c2)cc1
-16.3
COc1ccc(-c2cc(C(=O)N(C)Cc3ccc(OC)c(OC)c3OC)c3ccccc3n2)cc1OC
0.485
CC1(C)O[C@@H]2[C@H](O1)[C@@H](COS(=O)(=O)O)O[C@H]2n1ccc(=O)[nH]c1=O
-0.754
COc1cc(/C=N/NC(=O)c2cc(-c3ccccc3C)nc3ccccc23)cc(OC)c1O
-3.08
COc1ccccc1/C=N/Nc1nc(C)c(C(C)=O)s1
3.01
O=C(CSc1nc2[nH]ncc2c(=O)[nH]1)Nc1ccc(F)cc1
-2.71
Cc1ccc(CNC(=O)c2cc(-c3ccccc3C)n(CC3CC(c4cccc([N+](=O)[O-])c4)=NO3)n2)cc1 (centres undefined)
-3.66
O=C(NNC(=O)c1ccco1)Nc1ccccc1
39.9
CC(=O)Nc1cccc(C(=O)OCC(=O)c2ccc3c(c2)OCO3)c1
-2.29
Oc1c(C(c2cccs2)N2CCN(c3ccc(F)cc3)CC2)sc2ncnn12 (centres undefined)
95.5
Cc1ccc(Br)c(NS(=O)(=O)c2cccc(C(=O)N3CCNC(=O)C3)c2)c1
-0.146
COc1ccc(-c2onc3ccc(C(C)=O)cc23)cc1
-6.5
O=C(CC1SC(N2CCOCC2)=NC1=O)Nc1ccccc1F (centres undefined)
-2.71
Cc1ccc(NC(=O)CSCC(=O)NC2CCCCC2)cc1
-3.3
Cc1cc(C)n2nc(C(=O)OCC(=O)N(C)CC(=O)Nc3ccc(F)cc3)nc2n1
2.76
COc1ccccc1CNC(=O)c1ccc(Cl)c(S(=O)(=O)N2CCCC2)c1
-3.23
O=c1c2c(nc3n1CCCCC3)sc1c(O)cccc12
94.5
COc1cc(/C=N/NC(=O)c2cc(C)n(-c3ccc(F)cc3)c2C)cc(OC)c1O
64
Oc1c(C(c2ccco2)N2CCC3(CC2)OCCO3)sc2ncnn12 (centres undefined)
-33.4
Cc1ccc(C)c(-c2nnc(NC(=O)CS(=O)(=O)c3ccccc3)o2)c1
1.8
Cc1ccc(S(=O)(=O)Nc2nc(CN3CCOCC3)nc3sc(C)c(C)c23)cc1
-1.38
CC(=O)c1ccc(NC(=O)c2sc3nc4n(c(=O)c3c2C)CCCCC4)cc1
-6.68
O=C(OCc1nc2ccccc2[nH]1)C1CCCCC1
0.03
COc1cc(/C=N/O)cc(Br)c1OS(=O)(=O)c1ccc(C)cc1
-15
O=C(NCc1ccco1)/C(=C/c1cccc([N+](=O)[O-])c1)NC(=O)c1ccco1
69.6
O=C(CCNC(=O)c1ccc(Cl)cc1)NC1CCCc2ccccc21 (centres undefined)
-6.93
O=C(NCc1ccco1)c1ccc([N+](=O)[O-])cc1Cl
-19

Origin of values: PubChem BioAssay AID485317
